outcome measure: melting point

Please fill in: melting point reported for C#Cc1ccc(C#N)cc1OC = 105 to 106 °C

====

outcome measure: melting point

Observe how each entry below is paired with its result.
1. CCC(=O)OC1C(=O)N(c2nnc(C(C)(C)C)s2)C(=O)N1C (stereo unspecified) = 176 °C
2. O=C(NCc1ccccc1)c1ccccc1-c1ccccc1CNS(=O)(=O)c1cccc(F)c1 = 147 °C
3. CCOC(=O)C(Cc1ccccc1)NC(=O)N1CCc2cc(S(=O)(=O)N3CCN(c4cccc(Cl)c4)CC3)ccc21 (stereo unspecified) = 123 to 124 °C

Sure, the documented melting point for CCOC(=O)CN(NC(=O)OC(C)(C)C)C(=O)OCc1ccccc1 is 117 to 119 °C

# melting point of COc1cc(C(=O)NC=NC(=O)ON(c2ccc(C)c(NC(=O)c3ccc(C(=O)c4ccccc4)cc3)c2)C(C)(C)C)cc(OC)c1OC = 96 °C

molecule CC(C)C1C(O)=CC(=O)N1c1ccc(C#N)c(Cl)c1 (stereo unspecified) , melting point observed: 217 to 219 °C

Item: CC1=NC(=Cc2cccc(-c3ccc(Cl)cc3)c2)C(=O)O1 | melting point: 150 °C

The value of melting point measured for the molecule C#Cc1ccc(NC(=O)CCCC(=O)O)cc1 turned out to be 135 to 140 °C
